# Tested on: M. tuberculosis H37Rv
# Test: MIC vs. M. tuberculosis H37Rv, microplate Alamar Blue assay (MABA)
# Assay type: cell-based
# Run parameters: Table 4; read-out: MIC
Assay readout: MIC (µM)
Supply the numeric figure in µM, leaving out any unit text.

# Molecule, Unit abbreviation, MIC
records = [
    ("CCC1OC(=O)C(C)C(OC2CC(C)(OC)C(O)C(C)O2)C(C)C(OC2OC(C)CC(N(C)C)C2O)C(C)(OC)CC(C)C(=NOC2CCCNC2)C(C)C(O)C1(C)O (stereo not shown) [ITR0009]", "µM", 24),
]

In: Look up MIC: CCC1OC(=O)C(C)C(OC2CC(C)(OC)C(O)C(C)O2)C(C)C(OC2OC(C)CC(N(C)C)C2O)C(C)(OC)CC(C)C(=NOCCC2OCCO2)C(C)C(O)C1(C)O (stereo not shown) [Compound 1GY11]
Out: 29.5

In: For CCC1OC(=O)C(C)C(OC2CC(C)(OC)C(O)C(C)O2)C(C)C(OC2OC(C)CC(N(C)C)C2O)C(C)(OC)CC(C)C(=NOC2CCCN(C(=O)OCc3ccccc3)C2)C(C)C(O)C1(C)O (stereo not shown) [ITR0011] then?
Out: 6.0

In: For CCC1OC(=O)C(C)C(OC2CC(C)(OC)C(O)C(C)O2)C(C)C(OC2OC(C)CC(N(C)C)C2O)C(C)(OC)CC(C)C(=NOCCCCF)C(C)C(O)C1(C)O (stereo not shown) [Compound 1DP79] then?
Out: 3.5
